# assayTarget: human TLR8 (Homo sapiens (Human))
# Sequence (Q9NR97 27-1041): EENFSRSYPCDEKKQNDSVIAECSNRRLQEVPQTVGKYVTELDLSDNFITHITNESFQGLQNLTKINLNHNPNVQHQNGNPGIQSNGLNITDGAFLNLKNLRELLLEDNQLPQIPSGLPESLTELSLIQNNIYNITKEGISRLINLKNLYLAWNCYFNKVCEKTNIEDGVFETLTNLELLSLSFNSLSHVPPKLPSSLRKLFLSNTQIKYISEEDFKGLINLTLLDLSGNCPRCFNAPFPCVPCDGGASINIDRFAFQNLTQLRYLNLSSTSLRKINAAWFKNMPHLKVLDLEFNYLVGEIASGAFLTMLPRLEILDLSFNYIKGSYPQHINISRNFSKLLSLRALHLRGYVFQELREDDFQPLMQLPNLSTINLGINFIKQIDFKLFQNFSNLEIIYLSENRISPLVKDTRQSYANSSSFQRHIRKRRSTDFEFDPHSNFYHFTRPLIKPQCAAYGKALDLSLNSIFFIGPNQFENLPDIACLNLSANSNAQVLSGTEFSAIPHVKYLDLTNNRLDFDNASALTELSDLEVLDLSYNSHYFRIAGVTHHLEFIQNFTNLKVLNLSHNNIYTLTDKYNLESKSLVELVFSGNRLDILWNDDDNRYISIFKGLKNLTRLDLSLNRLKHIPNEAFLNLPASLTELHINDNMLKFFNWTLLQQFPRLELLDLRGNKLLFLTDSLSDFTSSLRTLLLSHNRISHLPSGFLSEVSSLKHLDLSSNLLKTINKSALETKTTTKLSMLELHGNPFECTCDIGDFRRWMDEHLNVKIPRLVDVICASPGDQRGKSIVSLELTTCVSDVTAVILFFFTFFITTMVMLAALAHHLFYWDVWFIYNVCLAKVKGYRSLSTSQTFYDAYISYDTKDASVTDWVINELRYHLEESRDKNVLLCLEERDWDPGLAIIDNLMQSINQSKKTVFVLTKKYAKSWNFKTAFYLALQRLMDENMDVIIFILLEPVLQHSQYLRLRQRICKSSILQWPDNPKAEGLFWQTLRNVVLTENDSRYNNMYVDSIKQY
# measurementProtocol: TLR8 inhibition reporter assay (HEK-Blue SEAP);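 also: SEAP driven by IFN-β minimal promoter carrying NF-κB and AP-1 sites, compounds dosed 0.05 nM to 50 µM for 22 h, inhibition scaled between agonist-plus-DMSO and reference-inhibitor wells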
# experimentalContext: read-out: TLR8 IC50; HEK-Blue cells overexpressing human TLR8, R848 15.9 μM stimulation, SEAP reporter
For each record, check the reported IC50: if it is below 3 nM write 1.0, else write 0.0.

compound	assayTarget	cat
COCCNCC(=O)N1CCN(c2ccc3[nH]c(-c4cn5ncnc5c(C)c4C)c(C(C)C)c3n2)CC1 [Example 159]	human TLR8 (Homo sapiens (Human))	1.0
COc1cc(-c2[nH]c3ccc(C4CCC(N(C)CCS(C)(=O)=O)CC4)nc3c2C(C)C)cn2ncnc12 (stereo not drawn) [Example 241]	human TLR8 (Homo sapiens (Human))	1.0
CC(C)c1c(-c2cn(C)c3ncccc23)[nH]c2ccc(N3CC(NCC(=O)N(C)C)C3)nc12 [Example 34]	human TLR8 (Homo sapiens (Human))	0.0

Request: Would you kindly verify if IC50 of COc1cc(-c2[nH]c3ccc(N4CCN(C5CCOC5)CC4)nc3c2C(C)C)cn2ncnc12 (stereo not drawn) [Example 103] is strictly less than 3 nM?
Result: 1.0

###

# assayTarget: human TLR7 (Homo sapiens (Human))
# Sequence (Q9NYK1 27-1049): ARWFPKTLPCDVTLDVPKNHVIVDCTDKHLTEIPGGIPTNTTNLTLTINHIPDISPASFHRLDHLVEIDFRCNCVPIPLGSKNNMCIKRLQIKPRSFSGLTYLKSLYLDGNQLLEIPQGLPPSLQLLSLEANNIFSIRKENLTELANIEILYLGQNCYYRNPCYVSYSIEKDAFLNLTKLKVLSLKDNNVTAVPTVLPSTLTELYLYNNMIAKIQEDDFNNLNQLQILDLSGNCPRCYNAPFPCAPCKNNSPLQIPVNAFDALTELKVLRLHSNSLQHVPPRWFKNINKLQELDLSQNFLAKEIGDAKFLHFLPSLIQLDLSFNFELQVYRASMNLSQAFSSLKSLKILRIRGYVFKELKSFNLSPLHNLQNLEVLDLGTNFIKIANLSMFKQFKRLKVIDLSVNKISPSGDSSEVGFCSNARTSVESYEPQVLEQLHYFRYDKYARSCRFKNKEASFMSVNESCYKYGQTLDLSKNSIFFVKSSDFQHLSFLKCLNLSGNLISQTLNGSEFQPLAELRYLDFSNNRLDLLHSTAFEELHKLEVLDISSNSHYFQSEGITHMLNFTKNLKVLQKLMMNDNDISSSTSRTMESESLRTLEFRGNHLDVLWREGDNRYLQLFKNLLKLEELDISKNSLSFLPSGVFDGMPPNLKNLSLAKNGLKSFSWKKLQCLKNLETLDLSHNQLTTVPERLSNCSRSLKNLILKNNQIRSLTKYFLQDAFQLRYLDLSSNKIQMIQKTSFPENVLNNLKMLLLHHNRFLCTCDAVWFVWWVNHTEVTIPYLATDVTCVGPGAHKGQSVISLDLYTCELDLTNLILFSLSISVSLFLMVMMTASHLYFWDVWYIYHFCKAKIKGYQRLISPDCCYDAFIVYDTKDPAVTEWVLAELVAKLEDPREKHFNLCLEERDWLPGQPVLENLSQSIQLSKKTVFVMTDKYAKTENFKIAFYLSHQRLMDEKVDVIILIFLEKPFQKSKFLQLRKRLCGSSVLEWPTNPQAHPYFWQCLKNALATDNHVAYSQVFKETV
# measurementProtocol: TLR7 inhibition reporter assay (HEK-Blue SEAP)
# Format: cell-based
# experimentalContext: HEK-Blue cells overexpressing human TLR7, SEAP reporter, gardiquimod 7.5 μM
measure: pIC50
Numbers only, as −log10 of the molar value.

// known answers, use as guide
compound	measure	readoutValue
COc1cc(-c2[nH]c3ccc(C4CN(C)CCO4)nc3c2C(C)C)cn2ncnc12 (centres unmarked)	pIC50	8.64
COc1cc(-c2[nH]c3ccc(C4CCC(N(CC#N)CC#N)C4)nc3c2C(C)C)cn2ncnc12 (centres unmarked) [Example 713]	pIC50	8.21
COc1cc(-c2[nH]c3ccc(CCC4CNC4)nc3c2C(C)C)cn2ncnc12	pIC50	7.70
CNC(=O)CN(C)C1CCC(c2ccc3[nH]c(-c4cn5ncnc5c(C)c4C)c(C(C)C)c3n2)CC1 (centres unmarked) [Example 403]	pIC50	8.11
COc1cc(-c2[nH]c3ccc(C4CCN(C5CCN(C)C5=O)CC4)nc3c2C(C)C)cn2ncnc12 (centres unmarked)	pIC50	8.72
COc1cc(-c2[nH]c3ccc(OC4CN(C)C4)nc3c2C(C)C)cn2ncnc12	pIC50	7.89
COc1cc(-c2[nH]c3ccc(C4CN(CC(N)=O)C4)nc3c2C(C)C)cn2ncnc12	pIC50	7.68

Request: Give the measured pIC50 of Cc1c(-c2[nH]c3ccc(C4CCN(CC(N)=O)CC4)nc3c2C(C)C)cn2ncnc2c1C .
Result: 8.92

###

# assayTarget: human TLR9 (Homo sapiens (Human))
# Sequence (Q9NR96 26-1032): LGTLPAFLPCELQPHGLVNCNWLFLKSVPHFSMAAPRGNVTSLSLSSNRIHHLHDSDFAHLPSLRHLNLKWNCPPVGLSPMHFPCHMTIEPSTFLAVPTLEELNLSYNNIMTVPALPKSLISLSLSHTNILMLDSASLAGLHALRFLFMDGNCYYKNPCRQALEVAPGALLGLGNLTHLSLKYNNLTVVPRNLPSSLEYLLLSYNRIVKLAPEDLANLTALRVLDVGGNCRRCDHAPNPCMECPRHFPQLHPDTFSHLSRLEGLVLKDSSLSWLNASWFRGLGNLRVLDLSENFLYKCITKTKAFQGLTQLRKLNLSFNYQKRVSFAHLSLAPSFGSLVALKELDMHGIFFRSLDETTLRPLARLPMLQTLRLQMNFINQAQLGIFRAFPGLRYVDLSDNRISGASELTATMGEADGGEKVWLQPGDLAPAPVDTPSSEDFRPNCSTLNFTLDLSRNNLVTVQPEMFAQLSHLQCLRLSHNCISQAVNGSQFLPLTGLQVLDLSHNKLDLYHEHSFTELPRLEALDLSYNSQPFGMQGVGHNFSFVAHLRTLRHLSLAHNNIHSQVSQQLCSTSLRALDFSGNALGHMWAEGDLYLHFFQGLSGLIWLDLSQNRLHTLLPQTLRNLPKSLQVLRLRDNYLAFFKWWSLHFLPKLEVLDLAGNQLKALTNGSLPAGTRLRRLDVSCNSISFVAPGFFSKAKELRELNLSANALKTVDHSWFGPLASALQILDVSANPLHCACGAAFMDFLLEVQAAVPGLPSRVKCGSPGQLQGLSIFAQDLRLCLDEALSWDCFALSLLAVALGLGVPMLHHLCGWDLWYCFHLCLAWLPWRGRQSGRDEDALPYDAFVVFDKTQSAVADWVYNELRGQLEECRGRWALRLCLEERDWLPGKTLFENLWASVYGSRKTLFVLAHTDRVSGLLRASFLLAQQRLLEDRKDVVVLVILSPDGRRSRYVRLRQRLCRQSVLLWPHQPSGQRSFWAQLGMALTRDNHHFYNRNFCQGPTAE
# measurementProtocol: TLR9 inhibition reporter assay (HEK-Blue SEAP)
# experimentalContext: read-out: TLR9 IC50; HEK-Blue cells overexpressing human TLR9, SEAP reporter, ODN2006 5 nM
Hi there, I'd appreciate the recorded pIC50 for every entry that follows.
One number for each entry, as −log10 of the molar value.

// known answers, use as guide
molecule	readoutValue
Cc1c(-c2[nH]c3ccc(C4CCC(N5CC6(C5)CS(=O)(=O)C6)CC4)nc3c2C(C)C)cn2ncnc2c1C (centres unmarked)	5.84
COc1cc(-c2[nH]c3cc(F)c(C4CCN(CCS(C)(=O)=O)CC4)nc3c2C(C)C)cn2ncnc12	5.49
COc1cc(-c2[nH]c3ccc(C4CN(CCS(C)(=O)=O)C4)nc3c2C(C)C)cn2ncnc12	5.23

Please look at the items below and tell me pIC50 for each one, in order.
1. COc1cc(-c2[nH]c3ccc(OC4CN(C)C4)nc3c2C(C)C)cn2ncnc12
2. Cc1c(-c2[nH]c3ccc(C4CN(CC(N)=O)C4)nc3c2C(C)C)cn2ncnc2c1C
3. Cc1c(-c2[nH]c3ccc(C4CN(C(=O)CN(C)C)CCO4)nc3c2C(C)C)cn2ncnc2c1C (centres unmarked)

Result:
5.49
5.38
4.67

Please look at the items below and tell me pIC50 for each one, in order.
1. Cc1c(-c2[nH]c3cc(F)c(C4CCC(N)CC4)nc3c2C(C)C)cn2ncnc2c1C (centres unmarked) [Example 507]
2. COc1cc(-c2[nH]c3ccc(C4CCC(NC5CCOCC5)C4)nc3c2C(C)C)cn2ncnc12 (centres unmarked) [Example 721]

Result:
5.07
6.01
